- STUDY SYSTEM: Alpha-1A adrenergic receptor (Homo sapiens)
- Sequence (whole entry): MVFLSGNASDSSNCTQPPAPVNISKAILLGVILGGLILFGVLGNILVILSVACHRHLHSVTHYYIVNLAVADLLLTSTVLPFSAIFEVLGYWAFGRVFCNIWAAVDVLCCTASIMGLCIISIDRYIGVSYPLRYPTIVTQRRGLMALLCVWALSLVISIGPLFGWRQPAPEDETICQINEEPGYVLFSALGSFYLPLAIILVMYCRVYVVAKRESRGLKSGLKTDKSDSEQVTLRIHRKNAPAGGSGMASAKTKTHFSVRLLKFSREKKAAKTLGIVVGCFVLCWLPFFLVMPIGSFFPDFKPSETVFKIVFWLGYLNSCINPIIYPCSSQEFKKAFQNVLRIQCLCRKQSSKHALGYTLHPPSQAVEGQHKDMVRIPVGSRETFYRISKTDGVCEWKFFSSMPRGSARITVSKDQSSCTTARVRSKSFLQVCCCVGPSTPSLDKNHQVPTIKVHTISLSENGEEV
- MEASUREMENT PARAMETERS: Compound concentration 10 µM
- Description: PDSP Primary Binding target: ADRA1A - Compounds are tested at 10 uM concentration, plate are incubated at room temperature in the dark for 90 minutes. Reaction are stopped by vacuum filtration onto 0.3% polyethyleneimine soaked filter mats using Filtermate harvester. Scintilation cocktail is then melted onto microwave-dried filters on a hot plate and the radio activity is counted in Microbia counter.
REPORTED ENDPOINT: inhibition

| SAMPLE SMILES | READOUT VALUE |
| --- | --- |
| Cc1ccc2c(c1)c1c(n2CCc2ccc(C)nc2)CCN(C)C1 | 88.6% |
| Cc1ccc(O)c([C@H](CCN(C(C)C)C(C)C)c2ccccc2)c1 | 0.77% |
| CN1CCC(C(=O)c2cccc(NC(=O)c3c(F)cc(F)cc3F)n2)CC1 | 17.6% |
| FC(F)(F)c1c(N2CCC(c3ccccc3)CC2)ccn2c(CC3CC3)nnc12 | -6.36% |
| C[C@]1(C(=O)N(CCCC(=O)O)Cc2cccc(Cl)c2)CCN1C(=O)c1csc2ccccc12 | -4.07% |

* * *

- STUDY SYSTEM: D(1B) dopamine receptor (Homo sapiens) (UniProt P21918)
- Sequence (P21918 whole entry): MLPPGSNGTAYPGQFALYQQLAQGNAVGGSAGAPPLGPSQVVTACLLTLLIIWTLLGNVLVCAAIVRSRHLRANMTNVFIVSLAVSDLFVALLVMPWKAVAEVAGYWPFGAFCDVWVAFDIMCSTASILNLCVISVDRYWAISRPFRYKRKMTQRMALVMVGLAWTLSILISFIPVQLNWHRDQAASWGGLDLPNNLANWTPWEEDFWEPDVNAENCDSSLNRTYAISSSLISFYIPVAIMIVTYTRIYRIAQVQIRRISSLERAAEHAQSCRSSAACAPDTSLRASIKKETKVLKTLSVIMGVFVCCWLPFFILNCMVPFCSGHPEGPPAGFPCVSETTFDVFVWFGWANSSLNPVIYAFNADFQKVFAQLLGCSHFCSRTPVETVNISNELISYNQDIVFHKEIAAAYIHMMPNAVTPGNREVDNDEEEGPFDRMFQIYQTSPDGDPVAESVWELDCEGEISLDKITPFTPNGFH
- MEASUREMENT PARAMETERS: Compound concentration 10 µM; call rule not given here
Outcome codes: t for active, f for inactive

| SAMPLE SMILES | ASSIGNED LABEL |
| --- | --- |
| COC(=O)C1=C(C)NC(C)=C(C(=O)OCCCN2CCC(c3ccccc3)(c3ccccc3)CC2)[C@H]1c1cccc([N+](=O)[O-])c1 | t |
| O=S1(=O)c2cccc3cccc(c23)N1CCCN1CCN(c2ccc(F)cc2)CC1 | f |
| Nc1nc2c(c(N3CCNCC3)n1)CCC1=C2[C@@H]2CCCC[C@@H]2O1 | f |
| COc1cccc([C@@H](C)NCCCc2ccccc2Cl)c1 | f |
| O=C(O)Cn1c(C(=O)Nc2nc(-c3ccccc3Cl)cs2)cc2ccccc21 | f |
| Cc1ccc2c(c1)c1c(n2CCc2ccc(C)nc2)CCN(C)C1 | f |

* * *

- STUDY SYSTEM: 5-hydroxytryptamine receptor 3A (Homo sapiens) (UniProt P46098)
- Sequence (P46098 whole entry): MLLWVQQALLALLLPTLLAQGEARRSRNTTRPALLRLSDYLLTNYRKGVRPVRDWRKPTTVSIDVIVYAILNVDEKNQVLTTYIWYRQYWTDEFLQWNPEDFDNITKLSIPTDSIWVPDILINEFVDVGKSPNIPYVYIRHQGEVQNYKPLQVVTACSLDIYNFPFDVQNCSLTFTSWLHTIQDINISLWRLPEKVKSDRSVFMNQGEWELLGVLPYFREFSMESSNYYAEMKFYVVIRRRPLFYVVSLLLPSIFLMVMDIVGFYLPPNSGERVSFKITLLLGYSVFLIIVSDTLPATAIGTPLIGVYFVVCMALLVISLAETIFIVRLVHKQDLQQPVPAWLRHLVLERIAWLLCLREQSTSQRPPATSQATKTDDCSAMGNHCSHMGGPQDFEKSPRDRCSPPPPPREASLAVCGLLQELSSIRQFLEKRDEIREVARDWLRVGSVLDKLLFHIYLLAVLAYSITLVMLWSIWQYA
- MEASUREMENT PARAMETERS: Compound concentration 10 µM
- Description: PDSP Primary Binding target: HTR3A - Compounds are tested at 10 uM concentration, plate are incubated at room temperature in the dark for 90 minutes. Reaction are stopped by vacuum filtration onto 0.3% polyethyleneimine soaked filter mats using Filtermate harvester. Scintilation cocktail is then melted onto microwave-dried filters on a hot plate and the radio activity is counted in Microbia counter.
Reported inhibition values for a set of compounds

| COMPOUND | QUANTITY UNIT | inhibition |
| --- | --- | --- |
| CN(C)S(=O)(=O)c1ccc(NC(=S)N2CCC(C(O)(c3ccccc3)c3ccccc3)CC2)cc1 | % | -8.86 |
| CCc1ccc(OCc2ccccc2C(=O)Nc2ccc3nc(C)cc(N)c3c2)cc1 | % | 24.7 |
| Cc1cn2cc(CC(=O)N3CCC4(CC3)CN(Cc3ccc(-n5nccn5)cc3Cl)C4)nc2s1 | % | 1.22 |
| NC[C@@H]1O[C@H](C23CC4CC(CC(C4)C2)C3)Cc2c1ccc(O)c2O | % | 39.6 |
| c1nc(CC2CCNCC2)c[nH]1 | % | 6.29 |
| OCc1cc(C(O)CNCCCCCCOCCCCc2ccccc2)ccc1O (stereo not drawn) | % | 4.21 |
| COc1ccc2cc(S(=O)(=O)N[C@H](CC(=O)N[C@H](Cc3ccc(CN4[C@H](C)CCC[C@@H]4C)cc3)C(=O)N(C)C(C)C)c3ccc4c(c3)OCO4)ccc2c1 | % | 12.8 |
| O=S1(=O)c2cccc3cccc(c23)N1CCCN1CCN(c2ccc(F)cc2)CC1 | % | 32.9 |
| CN(C)C(=O)N[C@H]1CC[C@H](CCN2CCN(c3cccc(Cl)c3Cl)CC2)CC1 | % | 6.73 |
| CCCSc1nc(N[C@@H]2C[C@H]2c2ccc(F)c(F)c2)c2nnn([C@@H]3C[C@H](OCCO)[C@@H](O)[C@H]3O)c2n1 | % | 4.33 |
| CCCCc1nc(Cl)c(CO)n1Cc1ccc(-c2ccccc2-c2nnn[nH]2)cc1 | % | -6.45 |
| C[C@H](Cc1cc2c(c(C(N)=O)c1)N(CCCO)CC2)NCCOc1ccccc1OCC(F)(F)F | % | 1.73 |
| CCc1nn2c(C)cc(C)nc2c1Cc1ccc(-c2nnc(C3CCNCC3)o2)cc1 | % | 93.4 |

* * *

- STUDY SYSTEM: Sodium-dependent serotonin transporter (Homo sapiens)
- MEASUREMENT PARAMETERS: Compound concentration 10 µM; call rule not given here
Outcome codes: active, inactive

| SAMPLE SMILES | STUDY SYSTEM | ASSIGNED LABEL |
| --- | --- | --- |
| N#Cc1cccc(C(=O)Nc2cc(-c3ccccc3)nn2-c2ccccc2)c1 | Sodium-dependent serotonin transporter (Homo sapiens) | inactive |
| Cc1cc([C@@H](C)Nc2cccc(-c3cc(C)c(C(=O)N[C@@H](C)C(=O)O)c(C)c3)c2)ccc1Cl | Sodium-dependent serotonin transporter (Homo sapiens) | inactive |
| COC(=O)C1=C(C)NC(C)=C(C(=O)OCCCN2CCC(c3ccccc3)(c3ccccc3)CC2)[C@H]1c1cccc([N+](=O)[O-])c1 | Sodium-dependent serotonin transporter (Homo sapiens) | active |

* * *

- STUDY SYSTEM: Beta-3 adrenergic receptor (Homo sapiens) (UniProt P13945)
- Sequence (P13945 whole entry, looked up): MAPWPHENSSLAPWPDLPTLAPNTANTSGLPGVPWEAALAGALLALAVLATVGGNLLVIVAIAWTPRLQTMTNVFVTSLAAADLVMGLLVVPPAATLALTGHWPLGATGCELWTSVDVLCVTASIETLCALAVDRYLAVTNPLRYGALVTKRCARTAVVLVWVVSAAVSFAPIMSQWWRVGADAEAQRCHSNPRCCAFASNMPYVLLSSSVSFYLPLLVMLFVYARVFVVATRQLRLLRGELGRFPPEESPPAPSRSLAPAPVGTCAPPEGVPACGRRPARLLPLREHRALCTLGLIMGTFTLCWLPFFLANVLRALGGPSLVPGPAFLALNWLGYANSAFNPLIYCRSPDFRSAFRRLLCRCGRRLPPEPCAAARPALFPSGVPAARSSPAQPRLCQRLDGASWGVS
- MEASUREMENT PARAMETERS: Compound concentration 10 µM; call rule not given here
Outcome codes: true (1) = active, false (0) = inactive

| COMPOUND | ASSIGNED LABEL |
| --- | --- |
| CS(=O)(=O)NC[C@H]1CC[C@H](Nc2nc3c(s2)CCSc2ccccc2-3)CC1 | false (0) |
| COc1cccc(-c2c(C)n(Cc3c(F)cccc3C(F)(F)F)c(=O)n(C[C@H](NCCCC(=O)O)c3ccccc3)c2=O)c1F | false (0) |
| CCCCN(CC)c1nc(C)nc2c1c(C)cn2-c1c(C)cc(C)cc1C | false (0) |
| COc1ccc(Br)cc1S(=O)(=O)NC(=O)/C=C/c1ccccc1Cc1ccc2ccccc2c1 | false (0) |
| COc1ccc(S(=O)(=O)N2c3ccc(Cl)cc3[C@](O)(c3ccccc3Cl)[C@@H]2C(=O)N2CCC[C@H]2C(N)=O)cc1OC | false (0) |
| CC(C)C[C@H](NC(=O)N1CCCCCC1)C(=O)N[C@H](Cc1cn(C)c2ccccc12)C(=O)N[C@H](Cc1ccccn1)C(=O)O | false (0) |
| N#Cc1ccc(NC(=O)Nc2ccccc2Br)c2nn[nH]c12 | true (1) |
| Cc1nc(C(=O)N2CCC[C@H]2Cc2nnc(-c3ccccc3)o2)c(-c2ccccc2F)s1 | false (0) |
| CO[C@@H]1COCC[C@@H]1N[C@@H]1CC[C@@](C(=O)N2CCc3ncc(C(F)(F)F)cc3C2)(C(C)C)C1 | false (0) |
| CN1C2CCC1CC(OC(c1ccc(F)cc1)c1ccc(F)cc1)C2 (stereo not given) | false (0) |
| COc1ccc(/C=C/CCCCOc2ccc(C(=O)c3cccc(C(=O)O)c3)cc2CCC(=O)O)cc1 | false (0) |
| O=C(O)C1CN(Cc2ccc(-c3nc4cc(Cc5ccccc5F)ccc4s3)c(F)c2)C1 | false (0) |
| CN1CCCC(n2nc(Cc3ccc(Cl)cc3)c3ccccc3c2=O)CC1 (stereo not given) | true (1) |
| CSc1ccc(C(=O)N[C@@H]2CCCC[C@@H]2NC(=O)CNC(=O)c2cc(C(F)(F)F)ccc2NC(=O)NC(C)C)cc1 | false (0) |
| O=C1O[C@]2(CC[C@H](C(=O)Nc3ccn(-c4ccccc4F)n3)CC2)c2cnccc21 | false (0) |
| Clc1cccc(COc2cncc(N3CCNCC3)n2)c1 | false (0) |
| CCc1cc(C(C)=O)c(O)cc1OCCCCCC(C)(C)c1nn[nH]n1 | false (0) |
| COc1ccc(NS(=O)(=O)c2sc3ccc(Cl)cc3c2C)cc1N1CCNCC1 | true (1) |
| CCCSc1nc(N[C@@H]2C[C@H]2c2ccc(F)c(F)c2)c2nnn([C@@H]3C[C@H](OCCO)[C@@H](O)[C@H]3O)c2n1 | false (0) |
| CC(C)Oc1ccccc1C(=O)Nc1ccccc1C(=O)Nc1cccc(S(=O)(=O)C(F)(F)F)c1 | false (0) |
